These compounds were tested on Melanocortin receptor 5 (Homo sapiens, UniProt P33032); IC50 is the recorded read-out.
Sequence (P33032 whole entry): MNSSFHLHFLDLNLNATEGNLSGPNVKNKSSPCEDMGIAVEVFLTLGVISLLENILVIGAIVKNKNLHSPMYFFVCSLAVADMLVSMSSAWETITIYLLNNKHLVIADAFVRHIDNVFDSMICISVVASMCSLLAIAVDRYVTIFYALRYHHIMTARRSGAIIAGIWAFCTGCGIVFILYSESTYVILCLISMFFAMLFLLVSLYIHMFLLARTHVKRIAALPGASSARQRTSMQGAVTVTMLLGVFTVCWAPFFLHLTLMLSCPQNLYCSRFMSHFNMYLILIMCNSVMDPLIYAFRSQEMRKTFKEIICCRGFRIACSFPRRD
Respond with the figure and its unit, in that order.

In plain terms, `CC(=O)N[C@H]1CSSC[C@@H](C(=O)N2CCC[C@H]2C(=O)N2CCC[C@H]2C(=O)N[C@@H](CCCCN)C(=O)N[C@@H](CC(=O)O)C(N)=O)NC(=O)[C@H](Cc2c[nH]c3ccccc23)NC(=O)[C@H](CCCNC(=N)N)NC(=O)[C@@H](Cc2ccccc2)NC(=O)[C@@H]2CCCN2C(=O)[C@H](CCC(=O)O)NC1=O` has a documented IC50 of 0.2 µM

In plain terms, `CC(=O)N[C@H]1CSSC[C@H](C(=O)N2CCC[C@H]2C(=O)N2CCC[C@H]2C(=O)N[C@@H](CCCCN)C(=O)N[C@@H](CC(=O)O)C(N)=O)NC(=O)[C@H](Cc2c[nH]c3ccccc23)NC(=O)[C@H](CCCN=C(N)N)NC(=O)[C@@H](Cc2ccc3ccccc3c2)NC(=O)[C@H](Cc2c[nH]cn2)NC(=O)[C@H](CCC(=O)O)NC1=O` has a documented IC50 of 15 µM

In plain terms, `CC(=O)N[C@@H]1CSSC[C@@H](C(=O)N2CCC[C@H]2C(=O)N2CCC[C@H]2C(=O)N[C@@H](CCCCN)C(=O)N[C@@H](CC(=O)O)C(N)=O)NC(=O)[C@H](Cc2c[nH]c3ccccc23)NC(=O)[C@H](CCCN=C(N)N)NC(=O)[C@@H](Cc2ccc3ccccc3c2)NC(=O)[C@H](Cc2c[nH]cn2)NC(=O)[C@H](CCC(=O)O)NC1=O` has a documented IC50 of 26 µM

In plain terms, `CC(=O)N[C@H]1CSSC[C@H](C(=O)N2CCC[C@H]2C(=O)N2CCC[C@H]2C(=O)N[C@@H](CCCCN)C(=O)N[C@@H](CC(=O)O)C(N)=O)NC(=O)[C@H](Cc2c[nH]c3ccccc23)NC(=O)[C@H](CCCNC(=N)N)NC(=O)[C@@H](Cc2ccccc2)NC(=O)[C@H](Cc2c[nH]cn2)NC(=O)[C@H](CCC(=O)O)NC1=O` has a documented IC50 of 0.01 µM
